Biological target: Neprilysin (Oryctolagus cuniculus)
Sequence (P08049 whole entry): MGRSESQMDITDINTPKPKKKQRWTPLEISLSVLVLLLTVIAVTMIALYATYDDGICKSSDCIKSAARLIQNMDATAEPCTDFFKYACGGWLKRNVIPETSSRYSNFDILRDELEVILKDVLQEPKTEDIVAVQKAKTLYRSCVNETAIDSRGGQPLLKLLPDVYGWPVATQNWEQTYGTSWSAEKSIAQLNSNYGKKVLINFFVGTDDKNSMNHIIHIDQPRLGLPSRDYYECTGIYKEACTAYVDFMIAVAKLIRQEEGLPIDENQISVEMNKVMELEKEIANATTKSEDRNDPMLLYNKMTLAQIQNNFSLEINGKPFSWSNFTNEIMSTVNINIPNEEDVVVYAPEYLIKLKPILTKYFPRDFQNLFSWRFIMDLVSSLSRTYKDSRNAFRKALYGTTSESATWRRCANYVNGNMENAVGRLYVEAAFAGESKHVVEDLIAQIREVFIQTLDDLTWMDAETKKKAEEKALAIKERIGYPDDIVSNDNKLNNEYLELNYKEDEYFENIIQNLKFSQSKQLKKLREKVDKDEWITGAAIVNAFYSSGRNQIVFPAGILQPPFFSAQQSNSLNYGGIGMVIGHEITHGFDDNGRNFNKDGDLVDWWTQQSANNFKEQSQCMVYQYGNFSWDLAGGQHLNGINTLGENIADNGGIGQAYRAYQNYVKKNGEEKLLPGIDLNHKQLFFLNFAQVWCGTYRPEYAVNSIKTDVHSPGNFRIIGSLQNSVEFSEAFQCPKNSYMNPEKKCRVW
parameterMeasured: pIC50
Give bare numbers, as −log10 of the molar value.

// batch mode: one pIC50 value per listed entry
1. O=C(O)C[C@H](Cc1ccccc1)NC(=O)[C@@H](CC(=O)NO)Cc1ccccc1 (racemic)
2. CN(C(=O)C(CC(=O)NO)Cc1ccccc1)C(Cc1ccccc1)C(=O)O (stereo unspecified)

1. 8.52
2. 6.82

Below are 3 compounds. Give each one its pIC50.
1. CC(CC(=O)O)NC(=O)C(CC(=O)NO)Cc1ccccc1 (stereo in doubt; 6)
2. O=C(O)C[C@H](NC(=O)[C@H](CC(=O)NO)Cc1ccccc1)c1ccccc1
3. O=C(O)CCNC(=O)C(CC(=O)NO)Cc1ccccc1 (stereo unspecified)

1: 8.70; 2: 8.52; 3: 8.62

GET pIC50 where system = Neprilysin (Oryctolagus cuniculus) and item = CC(CNC(=O)C(CC(=O)NO)Cc1ccccc1)C(=O)O (stereo unspecified)
8.64

====

Give pIC50 for every item shown.
Experiment: Inhibition of dipeptidyl amino peptidase activity in rat brain with 10 nM [3H]Leu-enkephalin as substrate
Assay type: tissue-based
Give bare numbers, as −log10 of the molar value.

Worked cases, pIC50 given:
compound	assayResult
O=C(O)C[C@H](NC(=O)[C@H](CC(=O)NO)Cc1ccccc1)c1ccccc1	8.14
O=C(O)CCNC(=O)C(CC(=O)NO)Cc1ccccc1 (stereo unspecified)	7.44

Could you report pIC50 for every entry in the following list?
1. O=C(O)CCCCNC(=O)C(CC(=O)NO)Cc1ccccc1 (stereo unspecified)
2. CN(C(=O)C(CC(=O)NO)Cc1ccccc1)C(Cc1ccccc1)C(=O)O (stereo unspecified)

1: 6.60; 2: 8.64

List the reported pIC50 of each compound below.
1. O=C(O)C[C@H](NC(=O)[C@@H](CC(=O)NO)Cc1ccccc1)c1ccccc1 (racemic)
2. CC(NC(=O)C(CC(=O)NO)Cc1ccccc1)C(C)C(=O)O (stereo in doubt; 11B)

1: 8.59; 2: 7.76
